Below: a set of entries, each annotated with reported inhibition at 10 µM.
System: Human immunodeficiency virus 1
EXPERIMENT_DESCRIPTION: Antiviral activity against HIV1 NL4.3-Ren infected in human MT2 cells assessed as inhibition of viral growth at 10 uM measured 48 hrs post infection by luminometry
Format: functional
STUDY_CONDITIONS: Human immunodeficiency virus 1, NL4.3-Ren, MT2, 48 h

COMPOUND	MEASURED_TARGET	RESULT
C=C(C(=O)O)[C@@H]1CC[C@]2(C)CC[C@]3(C)[C@H](CC[C@@H]4[C@@]5(C)CCC(=O)C(C)(C)[C@@H]5CC[C@]43C)[C@@H]12	Human immunodeficiency virus 1	> 50%
C=C(C=O)[C@@H]1CC[C@]2(C)CC[C@]3(C)[C@H](CC[C@@H]4[C@@]5(C)CCC(=O)C(C)(C)[C@@H]5[C@H](O)C[C@]43C)[C@@H]12	Human immunodeficiency virus 1	> 50%
C=C(C)[C@@H]1CC[C@]2(C)CC[C@]3(C)[C@H](CC[C@@H]4[C@@]5(C)CC[C@H](O)C(C)(C)[C@@H]5CC[C@]43C)[C@@H]12 [LUPEOL]	Human immunodeficiency virus 1	< 50%
C=C(CO)[C@@H]1CC[C@]2(C)CC[C@]3(C)[C@H](CC[C@@H]4[C@@]5(C)CCC(=O)C(C)(C)[C@@H]5[C@H](O)C[C@]43C)[C@@H]12	Human immunodeficiency virus 1	> 50%
C=C(C)[C@@H]1CC[C@]2(CO[Si](C)(C)C(C)(C)C)CC[C@]3(C)[C@H](CC[C@@H]4[C@@]5(C)CC[C@H](O)C(C)(C)[C@@H]5CC[C@]43C)[C@@H]12	Human immunodeficiency virus 1	< 50%
C=C(C)[C@@H]1CC[C@]2(CO)CC[C@]3(C)[C@H](CC[C@@H]4[C@@]5(C)CC[C@H](OC(=O)/C=C/c6ccc(O)c(O)c6)C(C)(C)[C@@H]5CC[C@]43C)[C@@H]12	Human immunodeficiency virus 1	< 50%
C=C(C)[C@@H]1CC[C@]2(C(=O)O)CC[C@]3(C)[C@H](CC[C@@H]4[C@@]5(C)CC[C@H](OC(=O)CC(C)(C)C(=O)O)C(C)(C)[C@@H]5CC[C@]43C)[C@@H]12 [BEVIRIMAT]	Human immunodeficiency virus 1	> 50%
C=C(C)[C@@H]1CC[C@]2(COC(=O)C(C)(C)C)CC[C@]3(C)[C@H](CC[C@@H]4[C@@]5(C)CC[C@H](O)C(C)(C)[C@@H]5CC[C@]43C)[C@@H]12	Human immunodeficiency virus 1	< 50%

[in] What is its inhibition at 10 µM for Human immunodeficiency virus 1? Entry: C=C(C)[C@@H]1CC[C@]2(CO)CC[C@]3(C)[C@H](CC[C@@H]4[C@@]5(C)CCC(=O)C(C)(C)[C@@H]5CC[C@]43C)[C@@H]12 [BETULONE]
[out] > 50%

[in] What is its inhibition at 10 µM for Human immunodeficiency virus 1? Entry: `C=C(C)[C@@H]1CC[C@]2(C)CC[C@]3(C)[C@H](CC[C@@H]4[C@@]5(C)[C@H](O)C[C@H](O)C(C)(C)[C@@H]5CC[C@]43C)[C@@H]12`
[out] < 50%

###

Test system: Human immunodeficiency virus 1
EXPERIMENT_DESCRIPTION: Antiviral activity against HIV1 NL4.3-Ren infected in human MT2 cells assessed as inhibition of viral growth at 10 uM measured 48 hrs post infection by luminometry
Assay type: functional
STUDY_CONDITIONS: Human immunodeficiency virus 1, NL4.3-Ren, MT2, 48 h
Below: a set of entries, each annotated with reported inhibition at 10 µM.

MOLECULE	MEASURED_TARGET	inhibition at 10 µM
C=C(C)[C@@H]1CC[C@]2(COC(=O)CCCCCCC)CC[C@]3(C)[C@H](CC[C@@H]4[C@@]5(C)CC[C@H](OC(=O)CCCCCCC)C(C)(C)[C@@H]5CC[C@]43C)[C@@H]12	Human immunodeficiency virus 1	< 50%

[in] Would you kindly share the measured inhibition at 10 µM for `C=C(C)[C@@H]1CC[C@]2(C)CC[C@]3(C)[C@H](C[C@@H](O)[C@@H]4[C@@]5(C)CC[C@@H](O)C(C)(C)[C@@H]5CC[C@]43C)[C@@H]12` ?
[out] < 50%

[in] Would you kindly share the measured inhibition at 10 µM for `C=C(CO)[C@@H]1CC[C@]2(C)CC[C@]3(C)[C@H](CC[C@@H]4[C@@]5(C)CC[C@H](O)C(C)(C)[C@@H]5CC[C@]43C)[C@@H]12` ?
[out] < 50%

[in] Would you kindly share the measured inhibition at 10 µM for `C=C(CCl)[C@@H]1CC[C@]2(C)CC[C@]3(C)[C@H](C[C@@H](OC(C)=O)[C@@H]4[C@@]5(C)CCC(=O)C(C)(C)[C@@H]5CC[C@]43C)[C@@H]12` ?
[out] < 50%

[in] Would you kindly share the measured inhibition at 10 µM for `C=C(C)[C@@H]1CC[C@]2(COS(=O)(=O)c3ccc(C)cc3)CC[C@]3(C)[C@H](CC[C@@H]4[C@@]5(C)CC[C@H](O)C(C)(C)[C@@H]5CC[C@]43C)[C@@H]12` ?
[out] < 50%

[in] Would you kindly share the measured inhibition at 10 µM for C=C(C)[C@@H]1CC[C@]2(COC(C)=O)CC[C@]3(C)[C@H](CC[C@@H]4[C@@]5(C)CC[C@H](OC(C)=O)C(C)(C)[C@@H]5CC[C@]43C)[C@@H]12 [BETULIN DIACETATE] ?
[out] < 50%

[in] Would you kindly share the measured inhibition at 10 µM for `C=C(C)[C@@H]1CC[C@]2(COC(=O)CCCCCCC)CC[C@]3(C)[C@H](CC[C@@H]4[C@@]5(C)CC[C@H](O)C(C)(C)[C@@H]5CC[C@]43C)[C@@H]12` ?
[out] < 50%

[in] Would you kindly share the measured inhibition at 10 µM for `C=C(CCl)[C@@H]1CC[C@]2(C)CC[C@]3(C)[C@H](C[C@@H](OC(C)=O)[C@@H]4[C@@]5(C)C=CC(=O)C(C)(C)[C@@H]5CC[C@]43C)[C@@H]12` ?
[out] < 50%

[in] Would you kindly share the measured inhibition at 10 µM for `CC(C)(O)[C@@H]1CC[C@]2(C)CC[C@]3(C)[C@H](CC[C@@H]4[C@@]5(C)CCC(=O)C(C)(C)[C@@H]5[C@H](O)C[C@]43C)[C@@H]12` ?
[out] > 50%

[in] Would you kindly share the measured inhibition at 10 µM for `C=C(COC(C)=O)[C@@H]1CC[C@]2(C)CC[C@]3(C)[C@H](CC[C@@H]4[C@@]5(C)CC[C@H](OC(C)=O)C(C)(C)[C@@H]5CC[C@]43C)[C@@H]12` ?
[out] < 50%
